These data points were gathered from ChEMBL document CHEMBL2203084.

Test system: Nucleic Acid
Test method notes: Binding affinity to duplex DNA at 6:1 compound to DNA ratio by UV-spectrometer
Format: nucleic-acid assay
Measured metric: ΔTm (°C)

a. CC1(C)C(/C=C/C(Br)=C/C=C2/N(CCC[N+](C)(C)C)c3ccc(Cl)cc3C2(C)C)=[N+](CCC[N+](C)(C)C)c2ccc(Cl)cc21
b. CC1(C)C(/C=C/C=C/C=C2/N(CCC[N+](C)(C)C)c3ccccc3C2(C)C)=[N+](CCC[N+](C)(C)C)c2ccccc21
c. CC1(C)C(/C=C/C=C/C=C2/N(CCC[N+](C)(C)C)c3ccc(Br)cc3C2(C)C)=[N+](CCC[N+](C)(C)C)c2ccc(Br)cc21
List the 3 entries from lowest ΔTm to highest ΔTm value. # answer = labels listed in requested order
b, c, a

* * *

Tested on: Nucleic Acid
Test method notes: Binding affinity to Tel22 G-quadruplex DNA at 6:1 compound to DNA ratio by UV-spectrometer
Assay type: nucleic-acid assay
Measured metric: ΔTm (°C)

• CC1(C)C(/C=C/C(Cl)=C/C=C2/N(CCC[N+](C)(C)C)c3ccc(Cl)cc3C2(C)C)=[N+](CCC[N+](C)(C)C)c2ccc(Cl)cc21 = 19

A. CC1(C)C(/C=C/C(Br)=C/C=C2/N(CCC[N+](C)(C)C)c3ccc(Br)cc3C2(C)C)=[N+](CCC[N+](C)(C)C)c2ccc(Br)cc21
B. CC1(C)C(/C=C/C=C/C=C2/N(CCC[N+](C)(C)C)c3ccccc3C2(C)C)=[N+](CCC[N+](C)(C)C)c2ccccc21
C. CC1(C)C(/C=C/C=C/C=C2/N(CCC[N+](C)(C)C)c3ccc(Cl)cc3C2(C)C)=[N+](CCC[N+](C)(C)C)c2ccc(Cl)cc21
Arrange these 3 compounds in increasing order of ΔTm. Write the labels out in the order the request specifies.
B, C, A
(B: 8.7 °C, C: 13.2 °C, A: 20.3 °C)

1. CC1(C)C(/C=C/C(Cl)=C/C=C2/N(CCC[N+](C)(C)C)c3ccc(Br)cc3C2(C)C)=[N+](CCC[N+](C)(C)C)c2ccc(Br)cc21
2. CC1(C)C(/C=C/C(Cl)=C/C=C2/N(CCC[N+](C)(C)C)c3ccccc3C2(C)C)=[N+](CCC[N+](C)(C)C)c2ccccc21
Higher ΔTm between 1 and 2 ? Let me know the label of the one you choose.
1

* * *

Tested on: Nucleic Acid
Test method notes: Binding affinity to Tel22 G-quadruplex DNA at 4:1 compound to DNA ratio by UV-spectrometer
Type: nucleic-acid assay
Measured metric: ΔTm (°C)

- CC1(C)C(/C=C/C(Cl)=C/C=C2/N(CCC[N+](C)(C)C)c3ccc(Br)cc3C2(C)C)=[N+](CCC[N+](C)(C)C)c2ccc(Br)cc21: 16
- CC1(C)C(/C=C/C(Cl)=C/C=C2/N(CCC[N+](C)(C)C)c3ccc(Cl)cc3C2(C)C)=[N+](CCC[N+](C)(C)C)c2ccc(Cl)cc21: 15
- CC1(C)C(/C=C/C(Br)=C/C=C2/N(CCC[N+](C)(C)C)c3ccc(Br)cc3C2(C)C)=[N+](CCC[N+](C)(C)C)c2ccc(Br)cc21: 16.2
- CC1(C)C(/C=C/C(Cl)=C/C=C2/N(CCC[N+](C)(C)C)c3ccccc3C2(C)C)=[N+](CCC[N+](C)(C)C)c2ccccc21: 12.2

I. CC1(C)C(/C=C/C(Br)=C/C=C2/N(CCC[N+](C)(C)C)c3ccccc3C2(C)C)=[N+](CCC[N+](C)(C)C)c2ccccc21
II. CC1(C)C(/C=C/C(Br)=C/C=C2/N(CCC[N+](C)(C)C)c3ccc(Cl)cc3C2(C)C)=[N+](CCC[N+](C)(C)C)c2ccc(Cl)cc21
Kindly identify which of I and II has the larger recorded ΔTm value. Refer to your chosen entry by its label in the reply.
II
